test-name: AUC in BALB/cAnNCrlCrlj mouse at 10 mg/kg, po
Assay type: ADME, organism-based
applied-conditions: in vivo
Reported values of AUC for individual entries
Express your answer in ng·h/mL, writing the number without its unit.

>  <compound>
Cc1cccc(Nc2nc(NC3CCCCC3N)c(C#N)c3cn[nH]c(=O)c23)c1 (configuration not stated)

>  <AUC (ng·h/mL)>
4800

$$$$

Form: compound = C[C@@H]1CN(c2cccc(Nc3nc(N[C@@H]4CCCC[C@@H]4N)c(C#N)c4cn[nH]c(=O)c34)c2)C[C@H](C)O1 ; AUC = 8200

----------
test-name: Protein binding in BALB/c mouse serum at 10 ug/ml incubated for 4 hrs by equilibrium dialysis
Format: ADME, cell-free
applied-conditions: at 10 µg/mL, read-out: PB (converted)
readout: fraction unbound at 4 h, 10 ug/ml
When you answer, write just the number.

>  <compound>
Cc1cccc(Nc2nc(NC3CCCCC3N)c(C#N)c3cn[nH]c(=O)c23)c1 (configuration not stated)

>  <observed-value>
0.01

$$$$

Sample C[C@@H]1CN(c2cccc(Nc3nc(N[C@@H]4CCCC[C@@H]4N)c(C#N)c4cn[nH]c(=O)c34)c2)C[C@H](C)O1 ; fraction unbound at 4 h, 10 ug/ml observed: 0.03
